Data origin, for the record: ChEMBL document CHEMBL1135136

Each item that follows carries a reported Ki.
- assayed target: Carbonic anhydrase 1 (Homo sapiens)
- Sequence (P00915 whole entry): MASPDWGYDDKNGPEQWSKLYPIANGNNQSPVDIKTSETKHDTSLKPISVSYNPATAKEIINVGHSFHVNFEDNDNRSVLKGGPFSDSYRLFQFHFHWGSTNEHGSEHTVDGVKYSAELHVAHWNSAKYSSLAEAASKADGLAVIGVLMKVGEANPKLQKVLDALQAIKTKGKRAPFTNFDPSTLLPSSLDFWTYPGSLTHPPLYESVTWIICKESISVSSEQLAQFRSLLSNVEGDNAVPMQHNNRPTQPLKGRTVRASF

| chemical string | Ki, µM |
| --- | --- |
| C[C@H](CCC(=O)Nc1ccc(S(N)(=O)=O)cc1F)[C@H]1CC[C@H]2[C@@H]3[C@@H](O)C[C@@H]4C[C@H](O)CC[C@]4(C)[C@H]3CC[C@]12C | 0.18 |
| C[C@H](CCC(=O)Nc1ccc(S(N)(=O)=O)cc1)[C@H]1CC[C@H]2[C@@H]3CC[C@@H]4C[C@H](O)CC[C@]4(C)[C@H]3CC[C@]12C | 6.3 |
| C[C@H](CCC(=O)Nc1cccc(S(N)(=O)=O)c1)[C@H]1CC[C@H]2[C@@H]3[C@H](O)C[C@@H]4C[C@H](O)CC[C@]4(C)[C@H]3CC[C@]12C | 21.4 |
| C[C@H](CCC(=O)NCCc1ccc(S(N)(=O)=O)cc1)[C@H]1CC[C@H]2[C@@H]3[C@@H](O)C[C@@H]4C[C@H](O)CC[C@]4(C)[C@H]3CC[C@]12C | 0.295 |
| C[C@H](CCC(=O)Nc1cc(Cl)c(S(N)(=O)=O)cc1S(N)(=O)=O)[C@H]1CC[C@H]2[C@@H]3[C@H](O)C[C@@H]4C[C@H](O)CC[C@]4(C)[C@H]3C[C@H](O)[C@]12C | 0.4 |
| C[C@H](CCC(=O)Nc1ccc2nc(S(N)(=O)=O)sc2c1)[C@H]1CC[C@H]2[C@@H]3CC[C@@H]4C[C@H](O)CC[C@]4(C)[C@H]3CC[C@]12C | 0.048 |
| C[C@H](CCC(=O)Nc1ccccc1S(N)(=O)=O)[C@H]1CC[C@H]2[C@@H]3[C@@H](O)C[C@@H]4C[C@H](O)CC[C@]4(C)[C@H]3CC[C@]12C | 8.4 |
| C[C@H](CCC(=O)NCCC(=O)Nc1nnc(S(N)(=O)=O)s1)[C@H]1CC[C@H]2[C@@H]3CC[C@@H]4C[C@H](O)CC[C@]4(C)[C@H]3C[C@H](O)[C@]12C | 0.2 |
| C[C@H](CCC(=O)NNc1ccc(S(N)(=O)=O)cc1)[C@H]1CC[C@H]2[C@@H]3CC[C@@H]4C[C@H](O)CC[C@]4(C)[C@H]3CC[C@]12C | 15 |
| C[C@H](CCC(=O)OCCc1ccc(S(N)(=O)=O)cc1)[C@H]1CC[C@H]2[C@@H]3CC[C@@H]4C[C@H](O)CC[C@]4(C)[C@H]3CC[C@]12C | 0.625 |
| C[C@H](CCC(=O)/N=c1\sc(S(N)(=O)=O)nn1C)[C@H]1CC[C@H]2[C@@H]3[C@@H](O)C[C@@H]4C[C@H](O)CC[C@]4(C)[C@H]3CC[C@]12C | 0.054 |
